# test.method.notes: Pharmacokinetic tests in male SD rats
# Format: in vivo
# condition.info: rat, oral gavage (po), 10 mg/kg, plasma
measurement.kind: Tmax (h)
Numbers only, in h.

{"compound": "COc1cc(N2CCC(CN3CCN(c4ccc5c(c4)C(=O)N(C4CCC(=O)NC4=O)C5=O)CC3)CC2)c(-c2cnn(C)c2)cc1Nc1ncc(Br)c(Nc2ccc(C3CC3)cc2P(C)(C)=O)n1 (stereo not drawn) [DZL-1, reference compound]", "Tmax / h": 4}

Your task in this section: give Tmax for each listed record.
1. CCc1cc(Nc2ncc(Cl)c(Nc3ccccc3P(C)(C)=O)n2)c(OC)cc1N1CCN(CCN2CCC(c3cc4c(cc3F)c(N3CCC(=O)NC3=O)nn4C)C(F)(F)C2)CC1 (stereo not drawn)
2. CCc1cc(Nc2ncc(Cl)c(Nc3ccccc3P(C)(C)=O)n2)c(OC)cc1N1CCN(C(=O)CN2CCC(c3cc4c(cc3F)c(N3CCC(=O)NC3=O)nn4C)C(F)(F)C2)CC1 (stereo not drawn)
3. CCc1cc(Nc2ncc(Cl)c(Nc3ccccc3P(C)(C)=O)n2)c(OC)cc1N1CC2(CCN(C(=O)CN3CCC(c4cc5c(cc4F)c(N4CCC(=O)NC4=O)nn5C)CC3)CC2)C1
4. CCc1cc(Nc2ncc(Cl)c(Nc3ccccc3P(C)(C)=O)n2)c(OC)cc1N1CC2(CCN(C(=O)CN3CCC(c4cc5c(cc4F)c(N4CCC(=O)NC4=O)nn5C)C(F)(F)C3)CC2)C1 (stereo not drawn)
5. CCc1cc(Nc2ncc(Cl)c(Nc3ccccc3P(C)(C)=O)n2)c(OC)cc1N1CCN(C(=O)CN2CCC(c3cc4c(cc3F)c(N3CCC(=O)NC3=O)nn4C)CC2)CC1

Ans:
1. 2.67
2. 3.33
3. 4
4. 2
5. 4

====

# assayed.target: EGFR in Baf3-L858R-T790M-C797S (Homo sapiens, UniProt P00533, C797S/L858R/T790M)
# Sequence (P00533 25-1210 T790M/C797S/L858R): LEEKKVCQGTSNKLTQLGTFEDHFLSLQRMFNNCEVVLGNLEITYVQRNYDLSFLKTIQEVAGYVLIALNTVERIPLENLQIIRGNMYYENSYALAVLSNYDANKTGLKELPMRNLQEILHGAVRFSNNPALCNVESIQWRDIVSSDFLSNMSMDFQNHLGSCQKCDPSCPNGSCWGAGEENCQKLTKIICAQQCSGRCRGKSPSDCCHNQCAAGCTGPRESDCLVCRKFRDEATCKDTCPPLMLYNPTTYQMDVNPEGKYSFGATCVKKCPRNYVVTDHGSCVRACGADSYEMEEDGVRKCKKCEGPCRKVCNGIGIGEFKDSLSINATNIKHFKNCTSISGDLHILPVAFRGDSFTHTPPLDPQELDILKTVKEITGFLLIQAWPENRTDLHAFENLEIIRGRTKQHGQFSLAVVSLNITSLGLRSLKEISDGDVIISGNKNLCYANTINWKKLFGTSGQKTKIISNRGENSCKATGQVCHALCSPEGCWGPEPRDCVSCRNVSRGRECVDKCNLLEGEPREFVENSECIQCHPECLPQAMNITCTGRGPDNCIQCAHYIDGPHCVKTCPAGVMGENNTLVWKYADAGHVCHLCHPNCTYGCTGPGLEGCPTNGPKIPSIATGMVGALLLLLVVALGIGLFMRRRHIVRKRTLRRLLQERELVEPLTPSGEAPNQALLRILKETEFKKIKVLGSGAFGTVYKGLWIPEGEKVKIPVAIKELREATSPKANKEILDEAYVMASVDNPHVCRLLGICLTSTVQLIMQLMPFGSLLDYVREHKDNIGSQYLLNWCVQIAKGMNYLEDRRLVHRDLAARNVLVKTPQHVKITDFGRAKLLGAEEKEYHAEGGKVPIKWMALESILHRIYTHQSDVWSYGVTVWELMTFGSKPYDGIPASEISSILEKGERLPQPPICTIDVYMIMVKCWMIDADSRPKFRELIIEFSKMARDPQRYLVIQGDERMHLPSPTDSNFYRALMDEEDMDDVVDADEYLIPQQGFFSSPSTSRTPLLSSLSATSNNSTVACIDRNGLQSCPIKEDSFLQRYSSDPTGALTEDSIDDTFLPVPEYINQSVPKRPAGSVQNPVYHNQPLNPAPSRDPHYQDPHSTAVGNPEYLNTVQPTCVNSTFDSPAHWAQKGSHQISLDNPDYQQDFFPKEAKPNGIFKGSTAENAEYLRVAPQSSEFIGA
# test.method.notes: EGFR PROTAC HTRF experiment (total EGFR degradation)
# Format: cell-based
# condition.info: Baf3-LTC, incubated 16 hours, HTRF total EGFR; read-out: Baf3-LTC DC50
Please respond with reported DC50 for every item in the list.

The cases that follow already have their DC50 on record.
{"compound": "CCc1cc(Nc2ncc(Cl)c(Nc3ccccc3P(C)(C)=O)n2)c(OC)cc1N1CCN(C(=O)CN2CCC(c3cc4c(cc3F)c(N3CCC(=O)NC3=O)nn4C)C(F)(F)C2)CC1 (centres unmarked)", "DC50": "< 10 nM"}
{"compound": "CCc1cc(Nc2ncc(Cl)c(Nc3ccc(Cl)cc3C(C)(C)O)n2)c(OC)cc1N1CCN(C(=O)CN2CCC(c3cc4c(cc3F)c(N3CCC(=O)NC3=O)nn4C)C(F)(F)C2)CC1 (centres unmarked)", "DC50": "100 to 1000 nM"}
{"compound": "CCc1cc(Nc2ncc(Cl)c(Nc3ccc(OC)cc3C(C)=O)n2)c(OC)cc1N1CCN(C(=O)CN2CCC(c3cc4c(cc3F)c(N3CCC(=O)NC3=O)nn4C)C(F)(F)C2)CC1 (centres unmarked)", "DC50": "100 to 1000 nM"}
{"compound": "CCc1cc(Nc2ncc(Cl)c(Nc3ccccc3P(C)(C)=O)n2)c(OC)cc1N1CCN(C(=O)CN2CCC(c3cc4c(cc3F)c(N3CCC(=O)NC3=O)nn4C)C(F)(F)C2)[C@@H](C)C1 (some centres unmarked)", "DC50": "10 to 100 nM"}

Now take the following compound into account.
Q: Name the recorded DC50 for CCc1ccc(Nc2nc(Nc3cc(CC)c(N4CCN(C(=O)CN5CCC(c6cc7c(cc6F)c(N6CCC(=O)NC6=O)nn7C)C(F)(F)C5)CC4)cc3OC)ncc2Cl)c(P(C)(C)=O)c1 (centres unmarked) .
Ans: 10 to 100 nM
